- System: NCI-H23 lung
- assay explanation: NCI-60 one-dose screen, 48 h (100 = growth as untreated, 0 = no growth, -100 = all killed)
- condition: 10 µM unless noted
The panel holds about 83,000 compounds, 20% with a hit somewhere; the sample as a whole holds those more often.
attribute measured: growth (%)
One number for each entry, in %.

- compound: "O=C(c1nnc(Nc2ccccc2Br)o1)c1c[nH]c2ccccc12"
  assay target: "NCI-H23 lung"
  readout number: 88.1
- compound: "Oc1cccc(CCc2ccc(Oc3cc(CCc4cccc(O)c4)cc(O)c3O)cc2)c1"
  assay target: "NCI-H23 lung"
  readout number: 89

In one line, give reported growth of the entry CC(=O)N1c2ccccc2NC2=C(C(=O)NC2(C)C)C1c1ccco1 (stereo not drawn) .
91.2

* * *

- Test system: SK-OV-3 ovarian
- assay explanation: NCI-60 one-dose screen, 48 h (100 = growth as untreated, 0 = no growth, -100 = all killed)
- condition: 10 µM unless noted
This is part of a sample that, as a whole, favours compounds with a hit. Of some 83,000 tested, about 20% had one in any assay. Calls of active or inactive are those of the source. The calls were made as follows: active = growth percent below 10; inactive = the rest.
Could you please report measured growth for the items listed next?

Below, 6 molecules whose answers are already recorded.
- molecule: "Oc1ccc(OCCOc2ccc(O)cc2)cc1"
  growth: "95.1% (inactive)"
- molecule: "COc1cc2c(c(OC)c1OC)-c1ccc(NNC(=S)N(Cc3cccc(C[N+](Cc4cccc(CNC56CC7CC(CC(C7)C5)C6)c4)(Cc4cccc(CNC56CC7CC(CC(C7)C5)C6)c4)Cc4cccc(CN(C(=S)NNc5ccc6c(cc5=O)[C@@H](NC(C)=O)CCc5cc(OC)c(OC)c(OC)c5-6)C56CC7CC(CC(C7)C5)C6)c4)c3)C34CC5CC(CC(C5)C3)C4)c(=O)cc1[C@@H](NC(C)=O)CC2 (stereo not given in full)"
  growth: "37% (inactive)"
- molecule: "O=C(NCCc1ccccc1)Nc1ccc2cc3ccc(NC(=O)NCCc4ccccc4)cc3nc2c1"
  growth: "41.4% (inactive)"
- molecule: "Cc1cc(C(=O)/C=C/c2ccc[nH]2)ccc1-n1ccc(C(F)(F)F)n1"
  growth: "129% (inactive)"
- molecule: "COc1cccc(-c2nc3occn3c2-c2ccnc(NCCCNS(=O)(=O)c3ccc(C(F)(F)F)cc3)n2)c1"
  growth: "81.9% (inactive)"
- molecule: "COc1cc2nc(-c3ccc(Cl)cc3)cc(OCCCN3CCCC3)c2cc1OC"
  growth: "75.5% (inactive)"

Below is a list of molecules. For each, state its recorded growth.
1. OCc1cnc2ccccc2c1NC1CCCCCC1
2. NC(=O)Nc1ccc(-n2cnc3cc(-c4ccc(O)cc4)ccc32)cc1
3. COc1cc(-c2csc(NC(=O)c3cc(F)cc(C(F)(F)F)c3)n2)cc(OC)c1OC
4. Cn1cc(-c2nc(-c3c[nH]c4c(Cl)nccc34)cs2)c2cc(F)ccc21
5. COc1ccc(/C=C2\Oc3cc(OCCCN4CCCCC4)ccc3C2=O)cc1OC

1. 97.7% (inactive)
2. 137% (inactive)
3. 54.3% (inactive)
4. 100% (inactive)
5. 113% (inactive)

* * *

- Tested on: HT29 colon
- assay explanation: NCI-60 one-dose screen, 48 h (100 = growth as untreated, 0 = no growth, -100 = all killed)
- condition: 10 µM unless noted
The panel holds about 83,000 compounds, 20% with a hit somewhere; the sample as a whole holds those more often. The source made the active and inactive calls. How the source made its calls: active means growth percent below 10; inactive means the rest.
Could you please report measured growth for the items listed next?

Below, 5 compounds whose answers are already recorded.
- compound: "N#C/C(=C\\c1c(-c2ccccc2)[nH]c2ccccc12)C(=O)c1ccc(Cl)cc1"
  growth: "17.3% (inactive)"
- compound: "CCCCC[n+]1ccc(SCC(=O)N(C)c2ccc(Oc3ccccc3)cc2)c2ccccc21"
  growth: "101% (inactive)"
- compound: "O=C1c2cccc3c(-c4ccc5c(c4)ncn5C4CCCCC4)ccc(c23)C(=O)N1c1nc2ccccc2s1"
  growth: "84% (inactive)"
- compound: "CC(=O)[C@@H]1CC[C@]2(C(N)=O)CC[C@]3(C)[C@H](CC[C@@H]4[C@@]5(C)CCCNC(C)(C)[C@@H]5CC[C@]43C)[C@@H]12"
  growth: "3.98% (active)"
- compound: "COc1cc(/C=C2\\COc3ccc(-c4ccccc4)cc3C2=O)cc(OC)c1"
  growth: "60.7% (inactive)"

Below is a list of compounds. For each, state its recorded growth.
1. COc1cc(C=O)ccc1OC1OC(COC(C)=O)C(OC(C)=O)C(OC(C)=O)C1OC(C)=O (centres undefined)
2. O=C(N/N=C/c1ccc(Oc2ccccc2)cc1)c1cnn2c1NC(c1ccccc1)C2 (centres undefined)
3. COc1cc(NC(C)CCCNC(=O)CCC(=O)NCCCNCCCCCCCCNCCCNC(=O)CCC(=O)NCCCC(C)Nc2cc(OC)cc3cccnc23)c2ncccc2c1 (centres undefined)
4. O=[N+]([O-])c1ccc(NC(=S)N/N=C/c2cc3ccccc3n3nnnc23)cc1

1. 105% (inactive)
2. 65.8% (inactive)
3. 67.5% (inactive)
4. 99.8% (inactive)

The reported numbers originate from PubChem BioAssay (NCI).
